Target: T1, recombinant human HER2 extracellular domain protein (human, UniProt P04626 23-652)
T1 construct: range 23-652; Range is printed for the immunogen/panning protein; also called ErbB2; recombinant HER2 protein
Test: BLI, Protein A capture
MEASURE NAME: Kd (nM)

- BINDER: "Hu2117HK-Mu27 (Fc fusion, scFv-hIgG1 Fc; not shown: human IgG1 Fc) scFv: EVQLVESGGGLVQPGGSLRLSCAASGFTYSSYGMSWVRQAPGKGLEWVASISGGGSYTKYPDSVKGRFTISRDNSKNTLYLQMNSLRAEDTAVYYCARDYAGFFDVWGQGTLVTVSSGGGGSGGGGSGGGGSDIQMTQSPSSLSASVGDRVTITCRSSQSLVHSNRNTYLHWYQQKPGKAPKLLIYKVSNRFSGVPSRFSGSGSGTDFTLTISSLQPEDFATYFCSQSTHVPYTFGQGTKVEIK"
  TEST RESULT: 7.38
- BINDER: "Hu2117HK-Mu35 (Fc fusion, name in Kabat numbering, scFv-hIgG1 Fc; not shown: human IgG1 Fc) scFv: EVQLVESGGGLVQPGGSLRLSCAASGFTYSSYGMSWVRQAPGKGLEWVASISGGGSYTKYPDSVKGRFTISRDNSKNTLYLQMNSLRAEDTAVYYCARDYAGFFDVWGQGTLVTVSSGGGGSGGGGSGGGGSDIQMTQSPSSLSASVGDRVTITCRSSQSLVHSNGNTYLHWYQQKPGKAPKLLIYKVSNRFSGVPSRFSGSGSGTDFTLTISSLQPEDFATYFCLQSTHVPYTFGQGTKVEIK"
  TEST RESULT: 59.8
- BINDER: "Hu2117HK-Mu03 (Fc fusion, scFv-hIgG1 Fc; not shown: human IgG1 Fc) scFv: EVQLVESGGGLVQPGGSLRLSCAASGFTYSSYGMSWVRQAPGKGLEWVASISGGGSYTKYPDSVKGRFTISRDNSKNTLYLQMNSLRAEDTAVYYCARDYAGFFDVWGQGTLVTVSSGGGGSGGGGSGGGGSDVQMTQSPSSLSASVGDRVTITCRSSQSLVHSNGNTYLHWYQQKPGKAPKLLIYKVSNRFSGVPSRFSGSGSGTDFTLTISSLQPEDFATYFCSQSTHVPYTFGQGTKVEIK"
  TEST RESULT: 8.69
